- SYSTEM TESTED: Recombinant SHP-1 protein (Homo sapiens)
- PROCEDURE TEXT: SHP-1 phosphatase activity assay (RediPlate 96 EnzChek Tyrosine Phosphatase Assay kit)
- Assay type: biochemical
- TEST CONTEXT: SC derivatives at 1 μM for 2 hr; recombinant SHP-1 25 ng; control DMSO = 100; mean±SD (N=3)
compounds and their reported SHP-1 Activity (% of control)

Worked cases, answers included:
record_smiles=N#CCc1ccc(NC(=O)Nc2ccc(Cl)c(Oc3ccc(C#N)cc3)c2)cc1 experimental_readout="SHP-1 Activity (% of control)" result="140.90 ± 6.65 % of control"
record_smiles=Cc1ccc(NC(=O)Nc2ccc(F)c(C(F)(F)F)c2)cc1Oc1ccc(C#N)cc1 experimental_readout="SHP-1 Activity (% of control)" result="151.59 ± 9.68 % of control"

Next item in the queue.
Query for Recombinant SHP-1 protein (Homo sapiens): what SHP-1 Activity (% of control) does the record show for `N#Cc1ccc(Oc2ccc(F)c(NC(=O)Nc3cc(Oc4ccc(C#N)cc4)ccc3F)c2)cc1` ? 127.01 ± 9.02 % of control

###

- Tested on: PLC5 cells (a hepatocellular carcinoma cell line)
- PROCEDURE TEXT: Cytotoxicity, MTT cell viability assay
- Assay type: cell-based
- TEST CONTEXT: 72 h exposure
compounds and their reported IC50
# unit: nM | format: bare number

Worked cases, answers included:
record_smiles=N#Cc1ccc(Oc2cc(NC(=O)Nc3cc(C(F)(F)F)cc(C(F)(F)F)c3)ccc2Cl)cc1 system_tested="PLC5 cells (a hepatocellular carcinoma cell line)" output_unit=nM measured_number=220
record_smiles=Cc1ccc(NC(=O)Nc2ccc(C)c(Oc3ccc(C#N)c(Cl)c3)c2)cc1Oc1ccc(C#N)cc1 system_tested="PLC5 cells (a hepatocellular carcinoma cell line)" output_unit=nM measured_number=110
record_smiles=N#Cc1ccc(Oc2cc(NC(=O)Nc3ccc(F)c(C(F)(F)F)c3)ccc2F)cc1 system_tested="PLC5 cells (a hepatocellular carcinoma cell line)" output_unit=nM measured_number=620
record_smiles=N#Cc1ccc(Oc2ccc3c(c2)N(C(=O)Nc2cc(C(F)(F)F)cc(C(F)(F)F)c2)CCO3)cc1 system_tested="PLC5 cells (a hepatocellular carcinoma cell line)" output_unit=nM measured_number=3310

Next item in the queue.
I am curious: what IC50 value has been reported for `Cc1ccc(NC(=O)Nc2ccc(C)c(Oc3ccc(C#N)c(Cl)c3)c2)cc1Oc1ccc(C#N)nc1` ? 190

###

molecules and their reported SHP-1 Activity (% of control)
- SYSTEM TESTED: Recombinant SHP-1 protein (Homo sapiens)
- PROCEDURE TEXT: SHP-1 phosphatase activity assay (RediPlate 96 EnzChek Tyrosine Phosphatase Assay kit)
- Format: biochemical
- TEST CONTEXT: SC derivatives at 1 μM for 2 hr; recombinant SHP-1 25 ng; control DMSO = 100; mean±SD (N=3)

Worked cases, answers included:
molecule=Cc1ccc(NC(=O)Nc2ccc(C)c(Oc3ccc(C#N)nc3)c2)cc1Oc1ccc(C#N)cc1 result="99.86 ± 3.65 % of control"
molecule=N#Cc1ccc(Oc2cc(NC(=O)Nc3cccc(C(F)(F)F)c3)ccc2F)cc1 result="136.00 ± 9.09 % of control"
molecule=N#Cc1ccc(Oc2cc(NC(=O)Nc3cc(C(F)(F)F)cc(C(F)(F)F)c3)ccc2F)cc1 result="336.99 ± 50.76 % of control"
molecule=Cc1cc(Oc2cc(NC(=O)Nc3ccc(C)c(Oc4ccc(C#N)nc4)c3)ccc2C)ccc1C#N result="140.46 ± 12.56 % of control"
molecule=Cc1ccc(NC(=O)Nc2ccc(C)c(Oc3ccc(C#N)nc3)c2)cc1Oc1ccc(C#N)nc1 result="81.06 ± 7.61 % of control"
molecule=N#Cc1ccc(Oc2cc(NC(=O)Nc3cccc(C(F)(F)F)c3)ccc2Cl)cc1Cl result="106.69 ± 9.47 % of control"
molecule=N#Cc1ccc(Oc2ccc(F)c(NC(=O)Nc3ccc(Cl)c(C(F)(F)F)c3)c2)cc1 result="424.63 ± 10.66 % of control"
molecule="CC1=CCC(NC(=O)C(=O)Nc2ccc(C)c(Oc3ccc(C#N)cc3)c2)C=C1OC1C=CC(C#N)=CC1 (stereo not drawn)" result="87.54 ± 10.21 % of control"
molecule=Cc1cc(Oc2ccc(C#N)cc2)ccc1NC(=O)Nc1ccc(Oc2ccc(C#N)cc2)cc1C result="95.78 ± 10.66 % of control"
molecule=N#Cc1ccc(Oc2ccc(Cl)c(NC(=O)Nc3cc(C(F)(F)F)cc(C(F)(F)F)c3)c2)cc1 result="273.26 ± 86.35 % of control"

Next item in the queue.
Query for Recombinant SHP-1 protein (Homo sapiens): what SHP-1 Activity (% of control) does the record show for `Cc1ccc(NC(=O)Nc2ccc(C)c(Oc3ccc(C#N)c4ccccc34)c2)cc1Oc1ccc(C#N)c2ccccc12` ? 153.49 ± 13.55 % of control

###

compounds and their reported SHP-1 Activity (% of control)
- SYSTEM TESTED: Recombinant SHP-1 protein (Homo sapiens)
- PROCEDURE TEXT: SHP-1 phosphatase activity assay (RediPlate 96 EnzChek Tyrosine Phosphatase Assay kit)
- Type: biochemical
- TEST CONTEXT: SC derivatives at 1 μM for 2 hr; recombinant SHP-1 25 ng; control DMSO = 100; mean±SD (N=3)

Worked cases, answers included:
compound="N#Cc1ccc(Oc2cccc(NC(=O)Nc3ccc(Cl)c(C(F)(F)F)c3)c2)cc1Cl [compound 79]" result="112.25 ± 0.60 % of control"
compound="N#CCc1ccc(NC(=O)Nc2ccc(Oc3ccc(CC#N)cc3)cc2)cc1 [compound 169]" result="126.25 ± 1.46 % of control"

Next item in the queue.
I am curious: what SHP-1 Activity (% of control) value has been reported for N#CCc1ccc(NC(=O)Nc2ccc(F)c(Oc3ccc(C#N)cc3)c2)cc1 [compound 153] ? 135.54 ± 5.11 % of control

###

- SYSTEM TESTED: Recombinant SHP-1 protein (Homo sapiens, UniProt P29350)
- Sequence (P29350 whole entry): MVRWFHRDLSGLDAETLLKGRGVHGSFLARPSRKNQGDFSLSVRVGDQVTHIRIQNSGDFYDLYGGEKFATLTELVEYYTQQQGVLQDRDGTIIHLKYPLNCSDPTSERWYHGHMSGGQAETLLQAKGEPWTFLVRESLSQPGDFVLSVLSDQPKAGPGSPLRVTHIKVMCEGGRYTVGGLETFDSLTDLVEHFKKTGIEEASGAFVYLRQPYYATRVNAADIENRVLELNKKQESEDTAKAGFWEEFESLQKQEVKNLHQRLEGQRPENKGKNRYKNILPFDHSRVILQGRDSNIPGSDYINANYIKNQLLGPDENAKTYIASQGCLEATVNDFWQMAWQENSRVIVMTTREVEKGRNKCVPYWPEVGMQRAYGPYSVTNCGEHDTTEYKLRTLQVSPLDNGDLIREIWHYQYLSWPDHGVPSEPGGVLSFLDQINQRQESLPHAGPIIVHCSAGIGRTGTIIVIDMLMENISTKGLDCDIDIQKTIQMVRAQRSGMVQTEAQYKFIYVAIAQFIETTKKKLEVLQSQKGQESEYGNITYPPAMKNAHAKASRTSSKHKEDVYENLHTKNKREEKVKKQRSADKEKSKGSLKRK
- PROCEDURE TEXT: SHP-1 phosphatase activity assay (RediPlate 96 EnzChek Tyrosine Phosphatase Assay kit)
- Assay type: biochemical
- TEST CONTEXT: SC derivatives at 1 μM for 2 hr; recombinant SHP-1 25 ng; control DMSO = 100; mean±SD (N=3)
EXPERIMENTAL READOUT: SHP-1 Activity (% of control)

compound="Cc1ccc(NC(=O)Nc2cccc(C(F)(F)F)c2)cc1Oc1ccc(C#N)cc1 [compound 134]" experimental_readout="SHP-1 Activity (% of control)" result="152.29 ± 7.92 % of control"
compound="N#Cc1ccc(Oc2ccc3c(c2)OCCN3C(=O)Nc2cc(C(F)(F)F)cc(C(F)(F)F)c2)cc1 [compound 164]" experimental_readout="SHP-1 Activity (% of control)" result="83.70 ± 10.90 % of control"
compound="N#CCc1ccc(Oc2ccc(NC(=O)Nc3cc(C(F)(F)F)cc(C(F)(F)F)c3)cc2)cc1 [compound 172]" experimental_readout="SHP-1 Activity (% of control)" result="215.34 ± 12.22 % of control"

I am curious: what SHP-1 Activity (% of control) value has been reported for C#Cc1cccc(NC(=O)Nc2ccc(F)c(Oc3ccc(C#N)cc3)c2)c1 [compound 150] ? 129.59 ± 59 % of control

Next up: Cc1ccc(NC(=O)Nc2ccc(C)c(Oc3ccc(C#N)c(F)c3)c2)cc1Oc1ccc(C#N)c(F)c1 [compound 84] 108.62 ± 10.55 % of control

Next up: Cc1ccc(NC(=O)Nc2ccc(C)c(Oc3ccc(C#N)cc3F)c2)cc1Oc1ccc(C#N)cc1F [compound 85] 91.42 ± 10.47 % of control

Next up: N#Cc1ccc(Oc2cc(NC(=O)Nc3cc(C(F)(F)F)cc(C(F)(F)F)c3)ccc2Cl)cn1 [compound 182] 110.50 ± 6.08 % of control

Next up: Cc1cc(Oc2cc(NC(=O)Nc3ccc(C)c(Oc4ccc(C#N)c(C)c4)c3)ccc2C)ccc1C#N [compound 98] 88.80 ± 14.30 % of control

Next up: N#Cc1ccc(Oc2ccc3c(c2)N(C(=O)Nc2ccc(Cl)c(C(F)(F)F)c2)CCO3)cc1 [compound 157] 106.27 ± 6.28 % of control

Next up: N#Cc1ccc(Oc2ccc(Cl)c(NC(=O)Nc3cc(Oc4ccc(C#N)cc4)ccc3Cl)c2)cc1 [compound 91] 99.99 ± 4.52 % of control
